Measured Long-term stability values are reported for all entries that follow.
# System: intact ZIKV particles
# method.summary: Direct ELISA vs intact ZIKV particles
# Format: binding
# condition.details: dose-response performance of the assay
# Method: Before biotin functionalization, peptides stock solution was reduced using trialkylphosphine (TCEP) from ThermoFisher Scientific (www.thermofisher.com) and after 1 h the gel was removed using TCEP gel spin separation columns (ThermoFisher Scientific). […] After 2 h the blocking buffers were removed using the same washing procedure mentioned above. […] The emission (450 nm) was read using a microplate reader (Clariostar Optima; BMG Labtech, Ortenberg, Germany). […]

Problem: Field request: Long-term stability | item: C4: clamp peptide WPWIGT (18) - bridge GPGCCGPG (32) - KTDAYS (27) (WPWIGTGPGCCGPGKTDAYS; C3 Binds to Active Site 2; Bridge peptide; C4 Binds to Active Site 1)
Result: >1 Month

Problem: And then C-SWPGQ (CSWPGQ; P1) [mono-arm pentapeptide with N-terminal cysteine] , what is it?
Result: >1 Month

Problem: And then C3: clamp peptide WPWIGT (18) - bridge GPGCCGPG (32) - KRNATP (26) (WPWIGTGPGCCGPGKRNATP; C3 Binds to Active Site 2; Bridge peptide; C3 Binds to Active Site 1) , what is it?
Result: >1 Month

Proceeding to the next substance to report its Long-term stability.
Problem: Field request: Long-term stability | item: C-KRNATP (CKRNATP; X1) [mono-arm hexapeptide with N-terminal cysteine]
Result: >1 Month

----------
Measured FPLR maximum values are reported for all entries that follow.
# Test system: intact ZIKV particles
# method.summary: Direct ELISA vs intact ZIKV particles
# Assay type: binding
# condition.details: delta absorbance 450 nm

Record excerpt, results attached:
Problem: Form field - read-out: FPLR maximum; system: intact ZIKV particles; submitted item: C4: clamp peptide WPWIGT (18) - bridge GPGCCGPG (32) - KTDAYS (27) (WPWIGTGPGCCGPGKTDAYS; C3 Binds to Active Site 2; Bridge peptide; C4 Binds to Active Site 1)
Result: 0.40 ΔA

Problem: And then C2: clamp peptide WPHTQ (16) - bridge GPGCCGPG (32) - LRGHA (25) (WPHTQGPGCCGPGLRGHA; C1 Binds to Active Site 2; Bridge peptide; C2 Binds to Active Site 1) , what is it?
Result: 0.55 ΔA

Problem: And then C8: clamp peptide MDSPIK (22) - bridge GPGCCGPG (32) - KTDAYS (27) (MDSPIKGPGCCGPGKTDAYS; C7 Binds to Active Site 2; Bridge peptide; C4 Binds to Active Site 1) , what is it?
Result: 0.82 ΔA

Proceeding to the next substance to report its FPLR maximum.
Problem: Form field - read-out: FPLR maximum; system: intact ZIKV particles; submitted item: C5: clamp peptide AGRRP (20) - bridge GPGCCGPG (32) - SWPGQ (24) (AGRRPGPGCCGPGSWPGQ; C5 Binds to Active Site 2; Bridge peptide; C1 Binds to Active Site 1)
Result: 0.17 ΔA

----------
# Tested on: intact ZIKV particles
# method.summary: Direct ELISA vs intact ZIKV particles
# Assay type: binding
# condition.details: delta absorbance 450 nm
Measured FPLR minimum values are reported for all entries that follow.

Record excerpt, results attached:
Problem: Form field - read-out: FPLR minimum; system: intact ZIKV particles; submitted item: C8: clamp peptide MDSPIK (22) - bridge GPGCCGPG (32) - KTDAYS (27) (MDSPIKGPGCCGPGKTDAYS; C7 Binds to Active Site 2; Bridge peptide; C4 Binds to Active Site 1)
Result: 0.03 ΔA

Problem: And then C-KTDAYS (CKTDAYS; X2) [mono-arm hexapeptide with N-terminal cysteine] , what is it?
Result: 0.01 ΔA

Next:
Problem: Form field - read-out: FPLR minimum; system: intact ZIKV particles; submitted item: C-KRNATP (CKRNATP; X1) [mono-arm hexapeptide with N-terminal cysteine]
Result: 0.03 ΔA

Problem: And then C6: clamp peptide AGRRP (20) - bridge GPGCCGPG (32) - LRGHA (25) (AGRRPGPGCCGPGLRGHA; C5 Binds to Active Site 2; Bridge peptide; C2 Binds to Active Site 1) , what is it?
Result: 0.05 ΔA

Problem: And then C2: clamp peptide WPHTQ (16) - bridge GPGCCGPG (32) - LRGHA (25) (WPHTQGPGCCGPGLRGHA; C1 Binds to Active Site 2; Bridge peptide; C2 Binds to Active Site 1) , what is it?
Result: 0.05 ΔA

----------
Measured FPLR maximum values are reported for all entries that follow.
# System: intact ZIKV particles
# method.summary: Direct ELISA vs intact ZIKV particles
# Assay type: binding
# condition.details: delta absorbance 450 nm
# Experimental: Before biotin functionalization, peptides stock solution was reduced using trialkylphosphine (TCEP) from ThermoFisher Scientific (www.thermofisher.com) and after 1 h the gel was removed using TCEP gel spin separation columns (ThermoFisher Scientific). […] After 2 h the blocking buffers were removed using the same washing procedure mentioned above. […] The emission (450 nm) was read using a microplate reader (Clariostar Optima; BMG Labtech, Ortenberg, Germany). […]

Problem: Field request: FPLR maximum | item: C6: clamp peptide AGRRP (20) - bridge GPGCCGPG (32) - LRGHA (25) (AGRRPGPGCCGPGLRGHA; C5 Binds to Active Site 2; Bridge peptide; C2 Binds to Active Site 1)
Result: 0.53 ΔA

Problem: And then C-LRGHA (CLRGHA; P2) [mono-arm pentapeptide with N-terminal cysteine] , what is it?
Result: 0.94 ΔA

Next:
Problem: Field request: FPLR maximum | item: C7: clamp peptide MDSPIK (22) - bridge GPGCCGPG (32) - KRNATP (26) (MDSPIKGPGCCGPGKRNATP; C7 Binds to Active Site 2; Bridge peptide; C3 Binds to Active Site 1)
Result: 0.95 ΔA

Problem: And then C-KRNATP (CKRNATP; X1) [mono-arm hexapeptide with N-terminal cysteine] , what is it?
Result: 0.98 ΔA

Problem: And then C-KTDAYS (CKTDAYS; X2) [mono-arm hexapeptide with N-terminal cysteine] , what is it?
Result: 0.91 ΔA

Problem: And then C3: clamp peptide WPWIGT (18) - bridge GPGCCGPG (32) - KRNATP (26) (WPWIGTGPGCCGPGKRNATP; C3 Binds to Active Site 2; Bridge peptide; C3 Binds to Active Site 1) , what is it?
Result: 0.67 ΔA

----------
Measured FPLR minimum values are reported for all entries that follow.
# Tested on: intact ZIKV particles
# method.summary: Direct ELISA vs intact ZIKV particles
# Assay type: binding
# condition.details: delta absorbance 450 nm

Problem: Field request: FPLR minimum | item: C7: clamp peptide MDSPIK (22) - bridge GPGCCGPG (32) - KRNATP (26) (MDSPIKGPGCCGPGKRNATP; C7 Binds to Active Site 2; Bridge peptide; C3 Binds to Active Site 1)
Result: 0.01 ΔA

Problem: And then C4: clamp peptide WPWIGT (18) - bridge GPGCCGPG (32) - KTDAYS (27) (WPWIGTGPGCCGPGKTDAYS; C3 Binds to Active Site 2; Bridge peptide; C4 Binds to Active Site 1) , what is it?
Result: 0.02 ΔA

Problem: And then C3: clamp peptide WPWIGT (18) - bridge GPGCCGPG (32) - KRNATP (26) (WPWIGTGPGCCGPGKRNATP; C3 Binds to Active Site 2; Bridge peptide; C3 Binds to Active Site 1) , what is it?
Result: 0.05 ΔA

Problem: And then C-LRGHA (CLRGHA; P2) [mono-arm pentapeptide with N-terminal cysteine] , what is it?
Result: 0.04 ΔA

Problem: And then C5: clamp peptide AGRRP (20) - bridge GPGCCGPG (32) - SWPGQ (24) (AGRRPGPGCCGPGSWPGQ; C5 Binds to Active Site 2; Bridge peptide; C1 Binds to Active Site 1) , what is it?
Result: 0.01 ΔA

The measurements presented in this section are drawn from patent US11830582B2.
